# measured.target: Asparagine synthetase [glutamine-hydrolyzing] (Homo sapiens)
# protocol.notes: Inhibition of human recombinant ASNS expressed in Sf9 cells assessed as initial inhibition constant for glutamine dependent production of inorganic pyrophosphate by spectrophotometry analysis
quantity.kind: Ki (nM)

>>> df
                                   compound  quantitative_result
0  C[S+]([O-])(C[C@H](N)C(=O)O)=NP(=O)(O)OC[C@H]1O[C@@H](n2cnc3c(N)ncnc32)[C@H](O)[C@@H]1O (mixture of isomers)                 1000
1  C[S+]([O-])(CCN)=NP(=O)(O)OC[C@H]1O[C@@H](n2cnc3c(N)ncnc32)[C@H](O)[C@@H]1O (mixture of isomers)                  490
2  C[S+]([O-])(CCC(=O)O)=NP(=O)(O)OC[C@H]1O[C@@H](n2cnc3c(N)ncnc32)[C@H](O)[C@@H]1O (mixture of isomers)                 4500

* * *

Catalogue of Ki readings, one per entry.
# measured.target: Asparagine synthetase [glutamine-hydrolyzing] (Homo sapiens, UniProt P08243)
# Sequence (P08243 whole entry): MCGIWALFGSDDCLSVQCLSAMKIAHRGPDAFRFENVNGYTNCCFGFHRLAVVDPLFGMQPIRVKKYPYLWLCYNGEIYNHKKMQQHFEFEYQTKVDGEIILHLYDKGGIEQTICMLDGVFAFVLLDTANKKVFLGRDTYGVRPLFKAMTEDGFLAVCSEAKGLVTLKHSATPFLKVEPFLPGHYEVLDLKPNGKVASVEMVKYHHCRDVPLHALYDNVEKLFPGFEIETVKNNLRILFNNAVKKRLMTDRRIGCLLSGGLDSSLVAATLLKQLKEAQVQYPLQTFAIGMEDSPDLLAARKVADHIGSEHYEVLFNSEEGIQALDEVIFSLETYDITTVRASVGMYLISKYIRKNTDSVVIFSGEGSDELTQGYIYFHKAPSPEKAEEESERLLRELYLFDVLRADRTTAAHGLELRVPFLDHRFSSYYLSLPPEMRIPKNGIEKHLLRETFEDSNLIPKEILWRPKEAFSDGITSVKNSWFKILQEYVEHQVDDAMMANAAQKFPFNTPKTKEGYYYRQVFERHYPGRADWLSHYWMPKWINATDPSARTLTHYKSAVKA
# protocol.notes: Inhibition of human recombinant ASNS expressed in Sf9 cells assessed as overall inhibition constant for glutamine dependent production of inorganic pyrophosphate by spectrophotometry analysis
quantity.kind: Ki (nM)

>>> df
                                   compound  quantity_kind  quantitative_result
0  C[S+]([O-])(C[C@H](N)C(=O)O)=NP(=O)(O)OC[C@H]1O[C@@H](n2cnc3c(N)ncnc32)[C@H](O)[C@@H]1O (mixture of isomers)             Ki                   24
1  C[S+]([O-])(CCN)=NP(=O)(O)OC[C@H]1O[C@@H](n2cnc3c(N)ncnc32)[C@H](O)[C@@H]1O (mixture of isomers)             Ki                    8
2  C[S+]([O-])(CCC(=O)O)=NP(=O)(O)OC[C@H]1O[C@@H](n2cnc3c(N)ncnc32)[C@H](O)[C@@H]1O (mixture of isomers)             Ki                  840
